test system: GFP-14-3-3β; assay: GFP-14-3-3β co-IP with LC-MS/MS, untreated GFP-14-3-3β versus GFP control (14-3-3 interactome); assay type: binding, human; details: GFP-14-3-3β co-IP LC-MS/MS; untreated vs GFP; student's t-test; label-free quantification, 3 replicates each
Result type: Difference (log2), untreated vs GFP

Molecule: HNRNPC (protein, UniProt P07910 2-306, looked up) Heterogeneous nuclear …: ASNVTNKTDPRSMNSRVFIGNLNTLVVKKSDVEAIFSKYGKIVGCSVHKGFAFVQYVNERNARAAVAGEDGRMIAGQVLDINLAAEPKVNRGKAGVKRSAAEMYGSVTEHPSPSPLLSSSFDLDYDFQRDYYDRMYSYPARVPPPPPIARAVVPSKRQRVSGNTSRRGKSGFNSKSGQRGSSKSGKLKGDDLQAIKKELTQIKQKVDSLLENLEKIEKEQSKQAVEMKNDKSEEEQSSSSVKKDETNVKMESEGGADDSAEEGDLLDDDDNEDRGDDQLELIKDDEKEAEEGEDDRDSANGEDDS
Obs value: 1.297

Molecule: DCD (protein, UniProt P81605 20-110, looked up) Dermcidin: YDPEAASAPGSGNPCHEASAAQKENAGEDPGLARQAPKPRKQRSSLLEKGLDGAKKAVGGLGKLGKDAVEDLESVGKGAVHDVKDVLDSVL
Obs value: -1.7359

Molecule: BRIX1 (protein, UniProt Q8TDN6 1-353, looked up) Ribosome biogenesis protein …: MAATKRKRRGGFAVQAKKPKRNEIDAEPPAKRHATAEEVEEEERDRIPGPVCKGKWKNKERILIFSSRGINFRTRHLMQDLRMLMPHSKADTKMDRKDKLFVINEVCEMKNCNKCIYFEAKKKQDLYMWLSNSPHGPSAKFLVQNIHTLAELKMTGNCLKGSRPLLSFDPAFDELPHYALLKELLIQIFSTPRYHPKSQPFVDHVFTFTILDNRIWFRNFQIIEEDAALVEIGPRFVLNLIKIFQGSFGGPTLYENPHYQSPNMHRRVIRSITAAKYREKQQVKDVQKLRKKEPKTLLPHDPTADVFVTPAEEKPIEIQWVKPEPKVDLKARKKRIYKRQRKMKQRMDSGKTK
Obs value: 1.65
